Measured Relative ratio of hydrolysis rate values are reported for all entries that follow.
# Tested on: β-lactamase produced by Serratia marcescens TN 81
# Test Description: stability to β-lactamase (relative ratio of hydrolysis rate)
# Type: biochemical
# Measurement Parameters: CER rated at 100

What value of Relative ratio of hydrolysis rate has been recorded for this entry: O=C(Cc1cccs1)N[C@@H]1C(=O)N2C(C(=O)[O-])=C(C[n+]3ccccc3)CS[C@H]12 [CER, cephaloridine, reference compound]
100

Moving on to the next molecule: CC(N)C(=O)NC(C)C(=O)NC(C)C(=O)NC(CCCNC(=N)N)C(O)CC(=O)OCC1=C(C(=O)O)N2C(=O)C(NC=O)(NC(=O)CCCC(N)C(=O)O)C2SC1 (stereo not drawn) [TAN-547 C]
< 0.01

Moving on to the next molecule: CC(N)C(=O)NC(C)C(=O)NC(CCCNC(=N)N)C(O)CC(=O)OCC1=C(C(=O)O)N2C(=O)C(NC=O)(NC(=O)CCCC(N)C(=O)O)C2SC1 (stereo not drawn) [TAN-547 B]
< 0.01

Moving on to the next molecule: CCN1CCN(C(=O)N[C@@H](C(=O)N[C@@H]2C(=O)N3C(C(=O)O)=C(CSc4nnnn4C)CS[C@H]23)c2ccc(O)cc2)C(=O)C1=O [CPZ, cefoperazone, reference compound]
11.6

Moving on to the next molecule: CC(N)C(=O)NC(CCCNC(=N)N)C(O)CC(=O)OCC1=C(C(=O)O)N2C(=O)C(NC=O)(NC(=O)CCCC(N)C(=O)O)C2SC1 (stereo not drawn) [TAN-547 A]
< 0.01

Moving on to the next molecule: CC1(C)S[C@@H]2[C@H](NC(=O)Cc3ccccc3)C(=O)N2[C@H]1C(=O)O [PCG, benzylpenicillin, reference compound]
12

----------
# Test system: Staphylococcus aureus FDA 209P
Observation Type: MIC (µg/mL)
# number only, unit µg/mL dropped from output

Compound	Target Desc	MIC / µg/mL
CC(N)C(=O)NC(CCCNC(=N)N)C(O)CC(=O)OCC1=C(C(=O)O)N2C(=O)C(NC(=O)CCCC(N)C(=O)O)C2SC1 (stereo not drawn)	Staphylococcus aureus FDA 209P	25
CC(N)C(=O)NC(C)C(=O)NC(CCCNC(=N)N)C(O)CC(=O)OCC1=C(C(=O)O)N2C(=O)C(NC(=O)CCCC(N)C(=O)O)C2SC1 (stereo not drawn)	Staphylococcus aureus FDA 209P	25

Item: CC(N)C(=O)NC(C)C(=O)NC(C)C(=O)NC(CCCNC(=N)N)C(O)CC(=O)OCC1=C(C(=O)O)N2C(=O)C(NC(=O)CCCC(N)C(=O)O)C2SC1 (stereo not drawn) Test system: Staphylococcus aureus FDA 209P Read-out: MIC Value: ?
12.5

----------
# Test Description: stability in aqueous solution
# Format: physicochemical
# Measurement Parameters: neutral aqueous solution
Observation Type: Stability

See these solved cases before continuing.
Compound	Stability
CC(N)C(=O)NC(C)C(=O)NC(C)C(=O)NC(CCCNC(=N)N)C(O)CC(=O)OCC1=C(C(=O)O)N2C(=O)C(NC(=O)CCCC(N)C(=O)O)C2SC1 (stereo not drawn)	Slightly unstable
CC(N)C(=O)NC(CCCNC(=N)N)C(O)CC(=O)OCC1=C(C(=O)O)N2C(=O)C(NC(=O)CCCC(N)C(=O)O)C2SC1 (stereo not drawn)	Slightly unstable
CC(N)C(=O)NC(C)C(=O)NC(C)C(=O)NC(CCCNC(=N)N)C(O)CC(=O)OCC1=C(C(=O)O)N2C(=O)C(NC=O)(NC(=O)CCCC(N)C(=O)O)C2SC1 (stereo not drawn)	slightly unstable
CC(N)C(=O)NC(CCCNC(=N)N)C(O)CC(=O)OCC1=C(C(=O)O)N2C(=O)C(NC=O)(NC(=O)CCCC(N)C(=O)O)C2SC1 (stereo not drawn)	slightly unstable
CC(N)C(=O)NC(C)C(=O)NC(CCCNC(=N)N)C(O)CC(=O)OCC1=C(C(=O)O)N2C(=O)C(NC(=O)CCCC(N)C(=O)O)C2SC1 (stereo not drawn)	Slightly unstable

Consider the record given below.
What value of Stability has been recorded for this entry: CC(N)C(=O)NC(C)C(=O)NC(CCCNC(=N)N)C(O)CC(=O)OCC1=C(C(=O)O)N2C(=O)C(NC=O)(NC(=O)CCCC(N)C(=O)O)C2SC1 (stereo not drawn)
slightly unstable
